- Tested on: SF-295
- test details: NCI tumour cell line growth inhibition, 48 h
Active and inactive are the calls of the source. Rule as the data show it: active = GI50 up to about 1.1 µM and inactive = higher.
property measured: GI50

Sample `CN(C)CCCNC(=O)c1cc(NC(=O)c2cc(NC(=O)CCCn3c4ccccc4c4ccccc43)cn2C)cn1C` — what was its GI50?
18.5 µM (inactive)

Sample CC(C)NC(=O)OCC[S+]([O-])c1c(Cl)c(Cl)nn1C (stereo not given) — what was its GI50?
> 100 µM (inactive)

Sample `CCCCCOc1ccc(/C=N\c2ccc(-c3ccc(/N=C\c4ccc(OCCCCC)cc4)c(OC)c3)cc2OC)cc1` — what was its GI50?
> 100 µM (inactive)

Sample `CN(CC(=O)O)c1ccc(/C=C/c2ccnc3ccccc23)cc1` — what was its GI50?
18.1 µM (inactive)

Sample `CCOC(=O)c1ccc(Nc2nc3ccccc3n3cccc23)cc1` — what was its GI50?
27.1 µM (inactive)

* * *

property measured: GI50 (µM)
# unit: µM | format: bare number

Give GI50 (HCT-15) of the following compound: O=C1C=C(Br)C(=O)C12CCc1ccccc12 (stereo unspecified)
7.53

Give GI50 (HCT-15) of the following compound: C=C(C)C1Cc2c(cc(OC)c3c(=O)c4ccccc4n(C)c23)O1 (stereo unspecified)
83.6

Give GI50 (HCT-15) of the following compound: `Cc1ccc2c(O)cc(-c3cccs3)nc2n1`
3.78

Give GI50 (HCT-15) of the following compound: `COc1ccc2c(c1)/C(=C\c1c(-c3ccccc3)nc3n1CCS3)C(=O)N2`
4.38

Give GI50 (HCT-15) of the following compound: C=C1C(=O)OC2/C=C(\C)C3OC3/C=C(/C(=O)OC)C(OC(C)=O)C(OC(=O)C(C)(O)C(C)OC(C)=O)C12 (stereo unspecified)
6.24

Give GI50 (HCT-15) of the following compound: `CC1(C)CC[C@]2(C(=O)O)CC[C@]3(C)C(=CCC4=C5C[C@H](O)[C@H](O)[C@@](C)(CO)[C@@]5(C)CC[C@]43C)[C@@H]2C1`
38.9

Give GI50 (HCT-15) of the following compound: CCC(C)n1c(C)nc2c1C(=O)c1ccccc1C2=O (stereo unspecified)
27.2

Give GI50 (HCT-15) of the following compound: CC(C)C(Sc1nc(-c2ccccc2)c(-c2ccccc2)[nH]1)C(=O)N/N=C/c1ccc(Cl)cc1 (stereo unspecified)
17.5

Give GI50 (HCT-15) of the following compound: `COc1ccc(CNC2=Nc3ccncc3S(=O)(=O)N2c2ccccc2)cc1`
34.3

Give GI50 (HCT-15) of the following compound: `C/C(=N\N=C(/S)N(C)C)c1cccc[n+]1[O-]`
1.45

Give GI50 (HCT-15) of the following compound: `O=C(/C=C1\N=C(c2ccccc2)N(c2nc3c(Cl)cc(Cl)cc3s2)C1=O)/C=C/c1ccccc1`
73.1

Give GI50 (HCT-15) of the following compound: `O=C(/C=C/c1ccccc1)CCc1c(O)c2ccccc2oc1=O`
76.7

Give GI50 (HCT-15) of the following compound: O=C(/C=C/c1ccc(O)cc1)c1ccc(O)cc1 [4,4'-DIHYDROXYCHALCONE]
20.3

Give GI50 (HCT-15) of the following compound: NC(Cc1ccc2oc3cc(=O)c4ccccc4c-3nc2c1)C(=O)O (stereo unspecified)
17.8

Give GI50 (HCT-15) of the following compound: CC[C@@]1(O)C[C@H](OC2CC(N(C)C)C(OC3CC(O)C(OC4CC(O)C(O)C(C)O4)C(C)O3)C(C)O2)c2c(cc3c(c2O)C(=O)c2c(O)ccc(O)c2C3=O)[C@H]1C(=O)OC (stereo partly specified)
0.151

Give GI50 (HCT-15) of the following compound: `O=[N+]([O-])c1cccc(Cl)c1Oc1ccc(S(=O)(=O)N/C(=N\O)Nc2ccc(Cl)cc2)cc1`
15

Give GI50 (HCT-15) of the following compound: C=C1CCC2[C@](C)(CCC[C@]2(C)C(=O)O)[C@@H]1CCc1ccoc1 (stereo partly specified)
26.8

Give GI50 (HCT-15) of the following compound: `Clc1ccc(-c2cc(-c3nc4ccccc4[nH]3)no2)cc1`
19.6

Give GI50 (HCT-15) of the following compound: O=C1CSC2(CC(/C=C/c3ccccc3)=NN2c2cccc(S(=O)(=O)O)c2)N1c1nc2ccccc2s1 (stereo unspecified)
32.6

* * *

I'd be grateful if you could share measured GI50 for these entries.
- System: IGROV-1
- test details: NCI tumour cell line growth inhibition, 48 h
Activity calls are given as the source filed them. Rule as the data show it: active = GI50 up to about 1.1 µM and inactive = higher.

Sample `Cc1nc(C)c(N2CCN(S(=O)(=O)N(Cc3ccccc3)Cc3ccccc3)CC2)c(O)n1` — what was its GI50?
16.8 µM (inactive)

Sample CC(C)(C)C1CCC(=O)/C(=C/CC2CC(=O)N(c3ccccc3)C(=O)C2)C1 (stereo not given) — what was its GI50?
19.7 µM (inactive)

Sample `C=C1CN=C(Nc2ccc(Cl)cc2)S1` — what was its GI50?
> 100 µM (inactive)

Sample COc1ccc2c(c1)OC(c1cccnc1)C(c1ccccc1)C2=O (stereo not given) — what was its GI50?
> 100 µM (inactive)

Sample `NC(=O)N/N=C(\Cc1nc2ccc(Cl)cc2nc1O)C(=O)Nc1ccc(Cl)cc1Cl` — what was its GI50?
81.5 µM (inactive)

Sample O=C1CC2C(=O)c3ccccc3CC2c2ccccc21 (stereo not given) — what was its GI50?
27 µM (inactive)

Sample `COc1ccc(NC(=S)NN=C(C)c2cccc(C(C)=NNC(=S)Nc3ccc(OC)cc3)n2)cc1` — what was its GI50?
0.857 µM (active)

Sample CN(C)CC1CC/C(=C\c2ccc(O)cc2)C1=O (stereo not given) — what was its GI50?
11.3 µM (inactive)

Sample N#CC12C(=O)N3C(=NC(c4ccco4)NC3c3ccco3)C1(C#N)C(c1ccco1)NC1=C2CCCC1 (stereo not given) — what was its GI50?
> 100 µM (inactive)

Sample `CCOC(=O)c1ccc(NC(=O)O/N=C(/Cl)C(C)C)cc1` — what was its GI50?
19.4 µM (inactive)

* * *

I'd be grateful if you could share measured GI50 for these entries.
- Tested on: UACC-62
- test details: NCI tumour cell line growth inhibition, 48 h
The source made the active and inactive calls. Cut-off read from the data, not from the text of the source: active = GI50 up to about 1.1 µM and inactive = higher.

Give GI50 (UACC-62) of the following compound: CC(C)(C)c1cc(C(CO)OCCOCCO)cc(C(C)(C)C)c1O (stereo not given)
> 100 µM (inactive)

Give GI50 (UACC-62) of the following compound: COC(=O)C(C(=O)C(=O)Nc1ccc(OC)cc1[N+](=O)[O-])c1nc2cc(C)c(C)cc2nc1O (stereo not given)
> 100 µM (inactive)

Give GI50 (UACC-62) of the following compound: `COc1cccc(/C=N/n2c(Cc3ccc(Cl)cc3)n[nH]c2=O)c1`
34.2 µM (inactive)

Give GI50 (UACC-62) of the following compound: `CCOC(=O)CN1C(=O)c2c(NC(=O)C(=O)O)cccc2S1(=O)=O`
> 100 µM (inactive)

Give GI50 (UACC-62) of the following compound: `Cc1c(C)c(S(=O)(=O)N(CCCCN)OCCCN)c(C)c2c1OC(C)(C)CC2`
20.7 µM (inactive)

Give GI50 (UACC-62) of the following compound: COc1cc2c3c(c1OC)Oc1ccc(cc1)CC1c4c(cc(OC)c(OC)c4Oc4ccc(cc4)CC3N(C)CC2)CCN1C (stereo not given)
19 µM (inactive)

Give GI50 (UACC-62) of the following compound: `O=C1C(=O)N(c2ccc(Cl)c(Cl)c2)C(=O)C(=O)C1c1nc2ccccc2o1`
74.8 µM (inactive)

Give GI50 (UACC-62) of the following compound: `OC(Cn1cncn1)(Cn1cncn1)c1ccc(Cl)cc1Cl`
> 100 µM (inactive)

Give GI50 (UACC-62) of the following compound: O=C1[C@H]2ON(c3ccccc3)C(c3ccc(Cl)cc3Cl)[C@H]2C(=O)N1c1ccc(Cc2ccc(N3C(=O)[C@@H]4ON(c5ccccc5)C(c5ccc(Cl)cc5Cl)[C@@H]4C3=O)cc2)cc1 (stereo not given in full)
> 100 µM (inactive)

Give GI50 (UACC-62) of the following compound: `Cc1csc(-c2cn(C)c3c2C(=O)C(=N)C=C3O)n1`
7.59 µM (inactive)

Give GI50 (UACC-62) of the following compound: c1ccc(C2=NOC(c3ccccc3)N2C23CC4CC(CC(C4)C2)C3)cc1 (stereo not given)
> 10 µM (inactive)

Give GI50 (UACC-62) of the following compound: `Cc1ccsc1/C=N/Nc1ccc2ccccc2n1`
25.1 µM (inactive)

Give GI50 (UACC-62) of the following compound: Nc1nc(Cl)cc(NCC2CC(O)(CO)C2)n1 (stereo not given)
> 100 µM (inactive)

Give GI50 (UACC-62) of the following compound: Cc1ccc(/C=C2\CN(C)CC3=C2OC(N)=C(C#N)C3c2ccc(C)cc2)cc1 (stereo not given)
18.4 µM (inactive)

Give GI50 (UACC-62) of the following compound: `COc1ccc(NN=C2C(=O)CCC2=O)cc1`
5.69 µM (inactive)

Give GI50 (UACC-62) of the following compound: `O=C(O)c1[nH]c2c([N+](=O)[O-])cc([N+](=O)[O-])cc2c1C(=O)O`
> 100 µM (inactive)

Give GI50 (UACC-62) of the following compound: COc1cc2c(cc1OC)[C@H]1C(COC(=O)Nc3ccccc3)CN1CC2 (stereo not given in full)
> 100 µM (inactive)

Give GI50 (UACC-62) of the following compound: C=C1CCC2[C@](C)(CCC[C@]2(C)C(=O)O)[C@@H]1CCc1ccoc1 (stereo not given in full)
35.2 µM (inactive)

Give GI50 (UACC-62) of the following compound: `COC(=O)[C@]1(C)CCC[C@@]2(C)[C@@H]3C[C@@H]4[C@H]5C[C@@]3(CC[C@@H]21)C[C@@]45C`
14.8 µM (inactive)

Give GI50 (UACC-62) of the following compound: `Cc1nnc(N)s/c1=N/O`
> 100 µM (inactive)
